SYSTEM_TESTED: hydrilla PDS Arg^304 → Histidine (Hydrilla verticillata, UniProt Q66PY0, R304H)
Sequence (Q66PY0 1-580 R304H): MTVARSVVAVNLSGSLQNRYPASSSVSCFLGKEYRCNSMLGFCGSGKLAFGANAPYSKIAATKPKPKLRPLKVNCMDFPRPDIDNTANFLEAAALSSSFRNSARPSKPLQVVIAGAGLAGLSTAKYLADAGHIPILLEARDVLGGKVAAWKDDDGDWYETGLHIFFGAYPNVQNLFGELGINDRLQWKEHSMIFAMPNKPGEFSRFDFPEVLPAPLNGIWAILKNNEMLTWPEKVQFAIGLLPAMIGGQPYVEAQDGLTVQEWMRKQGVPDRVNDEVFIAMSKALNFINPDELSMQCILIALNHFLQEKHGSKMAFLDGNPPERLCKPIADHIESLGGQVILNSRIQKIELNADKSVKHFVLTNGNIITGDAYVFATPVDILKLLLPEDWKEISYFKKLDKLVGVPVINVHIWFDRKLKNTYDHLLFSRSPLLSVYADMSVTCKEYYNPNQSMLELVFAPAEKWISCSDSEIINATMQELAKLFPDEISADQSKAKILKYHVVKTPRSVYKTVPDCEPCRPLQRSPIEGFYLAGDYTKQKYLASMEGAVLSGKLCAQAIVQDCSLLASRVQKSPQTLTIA
METHOD_DESCRIPTION: Cross resistance to bleaching herbicides, in vitro PDS inhibition, non-His-tagged (Table 2)
MEASUREMENT_PARAMETERS: Histidine at 304; construct in frame with LacZalpha-ccdB, non-His-tagged; read-out: I50
pIC50: −log10 of the molar value.
Record satisfied whenever pIC50 is at 5 or higher; record not satisfied when lower.

A selection of reference data follows.
• CNC1=C(c2cccc(C(F)(F)F)c2)C(=O)C(c2ccccc2)O1 (stereo not drawn) [Flurtamone] = satisfied
• CCC(Oc1ccc(F)c(C(F)(F)F)c1)C(=O)NCc1ccccc1 (stereo not drawn) [Beflubutamid] = satisfied
• O=C(Nc1ccc(F)cc1)c1cccc(Oc2cccc(C(F)(F)F)c2)n1 [Piconilafen, Picolinafen] = satisfied
• O=C1C(Cl)C(CCl)CN1c1cccc(C(F)(F)F)c1 (stereo not drawn) [Fluorochloridone] = not satisfied
• CNc1cnn(-c2cccc(C(F)(F)F)c2)c(=O)c1Cl [Norflurazon] = satisfied

Does O=C(Nc1ccc(F)cc1F)c1cccnc1Oc1cccc(C(F)(F)F)c1 [Diflufenican] have a reported pIC50 of at least 5? satisfied

* * *

SYSTEM_TESTED: hydrilla PDS Arg^304 → Serine, His-tagged (Hydrilla verticillata, UniProt Q66PY0, R304S)
Sequence (Q66PY0 77-580 R304S): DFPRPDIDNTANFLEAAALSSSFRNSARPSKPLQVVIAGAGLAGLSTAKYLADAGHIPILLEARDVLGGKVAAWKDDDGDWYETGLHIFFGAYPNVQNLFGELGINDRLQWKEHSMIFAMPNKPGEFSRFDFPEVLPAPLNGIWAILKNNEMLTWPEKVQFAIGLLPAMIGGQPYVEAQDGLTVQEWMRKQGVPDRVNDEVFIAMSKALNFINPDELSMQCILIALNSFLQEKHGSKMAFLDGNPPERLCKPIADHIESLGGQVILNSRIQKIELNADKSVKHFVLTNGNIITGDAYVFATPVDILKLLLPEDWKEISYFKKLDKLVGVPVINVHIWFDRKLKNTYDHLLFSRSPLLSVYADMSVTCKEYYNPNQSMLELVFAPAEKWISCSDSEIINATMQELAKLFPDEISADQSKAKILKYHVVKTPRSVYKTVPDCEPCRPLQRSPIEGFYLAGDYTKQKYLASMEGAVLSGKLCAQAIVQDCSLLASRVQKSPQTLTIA
METHOD_DESCRIPTION: Cross-resistance testing, His-tagged column-purified PDS (Table 2A)
MEASUREMENT_PARAMETERS: Serine at 304; His-tagged, column-purified PDS; read-out: I50
Label yes (1) when IC50 is strictly below 500 µM; at or above that, label no (0).

* CCC(Oc1ccc(F)c(C(F)(F)F)c1)C(=O)NCc1ccccc1 (stereo not drawn) [Beflubutamid] | yes (1)
* CNc1cnn(-c2cccc(C(F)(F)F)c2)c(=O)c1Cl [Norflurazon] | no (0)
* O=C1C(Cl)C(CCl)CN1c1cccc(C(F)(F)F)c1 (stereo not drawn) [Fluorochloridone] | no (0)

Please indicate whether the reported IC50 of O=C(Nc1ccc(F)cc1)c1cccc(Oc2cccc(C(F)(F)F)c2)n1 [Piconilafen, Picolinafen] is strictly below 500 µM. yes (1)

Same thing, different molecule: O=C(Nc1ccc(F)cc1F)c1cccnc1Oc1cccc(C(F)(F)F)c1 [Diflufenican] yes (1)

Same thing, different molecule: CNC1=C(c2cccc(C(F)(F)F)c2)C(=O)C(c2ccccc2)O1 (stereo not drawn) [Flurtamone] no (0)

* * *

Please provide measured pIC50 for the entries that follow.
SYSTEM_TESTED: hydrilla PDS Arg^304 → Serine (Hydrilla verticillata, UniProt Q66PY0, R304S)
Sequence (Q66PY0 1-580 R304S): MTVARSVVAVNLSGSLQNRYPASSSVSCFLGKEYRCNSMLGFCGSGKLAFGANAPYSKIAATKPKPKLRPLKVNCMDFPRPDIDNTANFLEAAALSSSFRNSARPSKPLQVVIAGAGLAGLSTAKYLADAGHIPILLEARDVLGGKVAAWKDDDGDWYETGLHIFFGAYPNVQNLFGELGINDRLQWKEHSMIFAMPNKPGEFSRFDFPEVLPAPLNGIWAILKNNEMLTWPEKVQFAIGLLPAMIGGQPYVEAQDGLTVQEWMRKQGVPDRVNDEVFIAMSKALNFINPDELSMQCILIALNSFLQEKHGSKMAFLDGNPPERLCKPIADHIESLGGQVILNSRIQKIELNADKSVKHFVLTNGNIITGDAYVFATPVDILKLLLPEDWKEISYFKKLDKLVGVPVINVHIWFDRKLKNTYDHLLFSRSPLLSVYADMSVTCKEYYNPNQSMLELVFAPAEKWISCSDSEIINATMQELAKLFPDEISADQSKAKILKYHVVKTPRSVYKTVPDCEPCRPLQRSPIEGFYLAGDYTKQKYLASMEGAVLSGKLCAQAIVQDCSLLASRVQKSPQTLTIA
METHOD_DESCRIPTION: Cross resistance to bleaching herbicides, in vitro PDS inhibition, non-His-tagged (Table 2)
MEASUREMENT_PARAMETERS: Serine at 304; construct in frame with LacZalpha-ccdB, non-His-tagged; read-out: I50
Give bare numbers, as −log10 of the molar value.

Past entries and their recorded results:
* CNc1cnn(-c2cccc(C(F)(F)F)c2)c(=O)c1Cl [Norflurazon] | 4.26
* CCC(Oc1ccc(F)c(C(F)(F)F)c1)C(=O)NCc1ccccc1 (centres unmarked) [Beflubutamid] | 5.59

For every listed record, write down its pIC50.
1. O=C(Nc1ccc(F)cc1F)c1cccnc1Oc1cccc(C(F)(F)F)c1 [Diflufenican]
2. CNC1=C(c2cccc(C(F)(F)F)c2)C(=O)C(c2ccccc2)O1 (centres unmarked) [Flurtamone]
3. O=C1C(Cl)C(CCl)CN1c1cccc(C(F)(F)F)c1 (centres unmarked) [Fluorochloridone]

1. 5.96
2. 5.23
3. 4.64

The values you see were collected from patent US20110098180A1.
